tested on: rodent lifetime carcinogenesis bioassay, tumor incidence TD50; assay: carcinogenic potency in animals, long-term in vivo studies, CPDB compilation (AID 1745844); settings: mouse; strain Swiss albino; females; in drinking water; site: lung; lesion: several types; types named in the paper; dosed 72 weeks; study length 72 weeks

CHEMICAL SMILES: CN(C)N
TARGET UNDER TEST: rodent lifetime carcinogenesis bioassay, tumor incidence TD50
TD50: 5.69 mg/kg/day

* * *

system: rodent lifetime carcinogenesis bioassay, tumor incidence TD50; test: carcinogenic potency in animals, long-term in vivo studies, CPDB compilation (AID 1745844); settings: rat; strain Fischer 344; females; in feed; site: any site (literature study); lesion: several types; types named in the paper; dosed 103 weeks; study length 104 weeks
Calls of active or inactive are those of the source. The rule behind the calls is not given here.
Some molecules, each annotated with its measured TD50.

MOLECULE: OC[C@@H](O)[C@@H](O)[C@H](O)[C@H](O)CO
TARGET UNDER TEST: rodent lifetime carcinogenesis bioassay, tumor incidence TD50
TD50: 5000 mg/kg/day (inactive)

MOLECULE: Nc1cc(S(=O)(=O)[O-])cc2cc(S(=O)(=O)[O-])c(N=Nc3ccc(-c4ccc(N=Nc5c(S(=O)(=O)[O-])cc6cc(S(=O)(=O)[O-])cc(N)c6c5O)c(O)c4)cc3O)c(O)c12.[Cu].[Cu].[Na+].[Na+].[Na+].[Na+]
TARGET UNDER TEST: rodent lifetime carcinogenesis bioassay, tumor incidence TD50
TD50: 653 mg/kg/day

MOLECULE: Nc1c(Br)cc(Br)c2c1C(=O)c1ccccc1C2=O
TARGET UNDER TEST: rodent lifetime carcinogenesis bioassay, tumor incidence TD50
TD50: 160 mg/kg/day

MOLECULE: O=[N+]([O-])c1cc(N(CCO)CCO)ccc1NCCO
TARGET UNDER TEST: rodent lifetime carcinogenesis bioassay, tumor incidence TD50
TD50: 3.13e+06 mg/kg/day

MOLECULE: O=S(=O)(O)c1ccc(N=Nc2c(O)ccc3cc(S(=O)(=O)O)ccc23)cc1
TARGET UNDER TEST: rodent lifetime carcinogenesis bioassay, tumor incidence TD50
TD50: 9060 mg/kg/day (inactive)

MOLECULE: O=C(O)c1ccc([N+](=O)[O-])cc1
TARGET UNDER TEST: rodent lifetime carcinogenesis bioassay, tumor incidence TD50
TD50: 373 mg/kg/day

MOLECULE: COc1ccccc1[N+](=O)[O-]
TARGET UNDER TEST: rodent lifetime carcinogenesis bioassay, tumor incidence TD50
TD50: 336 mg/kg/day

MOLECULE: N=C1C=CC(=C(c2ccc(N)cc2)c2ccc(N)cc2)C=C1
TARGET UNDER TEST: rodent lifetime carcinogenesis bioassay, tumor incidence TD50
TD50: 17.8 mg/kg/day

MOLECULE: O=P(OCC(Br)CBr)(OCC(Br)CBr)OCC(Br)CBr (stereo not given)
TARGET UNDER TEST: rodent lifetime carcinogenesis bioassay, tumor incidence TD50
TD50: 23 mg/kg/day

MOLECULE: Nc1ccc(N)c2c1C(=O)c1c(N)ccc(N)c1C2=O
TARGET UNDER TEST: rodent lifetime carcinogenesis bioassay, tumor incidence TD50
TD50: 130 mg/kg/day

* * *

system: rodent lifetime carcinogenesis bioassay, tumor incidence TD50; experiment: carcinogenic potency in animals, long-term in vivo studies, CPDB compilation (AID 1745844); conditions: mouse; strain B6C3F1; males; in feed; site: liver; lesion: hemangiosarcoma; dosed 96 weeks; study length 104 weeks
The source made the active and inactive calls. How the calls were made is not given here.
MEASURED METRIC: TD50

CHEMICAL SMILES: O
OBS VALUE: 46700 mg/kg/day (inactive)

* * *

tested on: rodent lifetime carcinogenesis bioassay, tumor incidence TD50; experiment: carcinogenic potency in animals, long-term in vivo studies, CPDB compilation (AID 1745844); conditions: mouse; strain B6C3F1; females; in feed; site: Harderian gland; lesion: several types; types named in the paper; dosed 80 weeks; study length 90 weeks
MEASURED METRIC: TD50 (mg/kg/day)

CHEMICAL SMILES: Cc1c([N+](=O)[O-])c(C)c([N+](=O)[O-])c(C(C)(C)C)c1[N+](=O)[O-]
TARGET UNDER TEST: rodent lifetime carcinogenesis bioassay, tumor incidence TD50
OBS VALUE: 2250

* * *

test system: rodent lifetime carcinogenesis bioassay, tumor incidence TD50; assay: carcinogenic potency in animals, long-term in vivo studies, CPDB compilation (AID 1745844); settings: mouse; strain Swiss albino; males; in drinking water; site: lung; lesion: adenoma; dosed 86 weeks; study length 87 weeks

CHEMICAL SMILES: NNC(=O)c1ccncc1
TD50: 104 mg/kg/day

* * *

tested on: rodent lifetime carcinogenesis bioassay, tumor incidence TD50; test: carcinogenic potency in animals, long-term in vivo studies, CPDB compilation (AID 1745844); conditions: rat; strain Slc-Wistar; males; in drinking water; site: liver; lesion: several types; types named in the paper; dosed 120 weeks; study length 120 weeks
The source made the active and inactive calls. How the calls were made is not given here.
MEASURED METRIC: TD50

CHEMICAL SMILES: CCO
OBS VALUE: 33800 mg/kg/day (inactive)

* * *

system: rodent lifetime carcinogenesis bioassay, tumor incidence TD50; test: carcinogenic potency in animals, long-term in vivo studies, CPDB compilation (AID 1745844); details: mouse; strain Charles River CD1; females; in feed; site: liver; lesion: several types; types named in the paper; dosed 109 weeks; study length 109 weeks
Active and inactive are the calls of the source. No rule for the calls is given here.

CHEMICAL SMILES: O=c1ccc2ccccc2o1
TARGET UNDER TEST: rodent lifetime carcinogenesis bioassay, tumor incidence TD50
TD50: 176 mg/kg/day (inactive)

* * *

system: rodent lifetime carcinogenesis bioassay, tumor incidence TD50; test: carcinogenic potency in animals, long-term in vivo studies, CPDB compilation (AID 1745844); conditions: rat; strain Wistar; females; in feed; site: liver; lesion: several types; types named in the paper; dosed 96 weeks; study length 101 weeks

COMPOUND: O=P(O)(OCC(Br)CBr)OCC(Br)CBr (stereo unspecified)
TARGET UNDER TEST: rodent lifetime carcinogenesis bioassay, tumor incidence TD50
TD50: 27.8 mg/kg/day

* * *

system: rodent lifetime carcinogenesis bioassay, tumor incidence TD50; test: carcinogenic potency in animals, long-term in vivo studies, CPDB compilation (AID 1745844); conditions: mouse; strain B6C3F1; females; in feed; site: lung; lesion: alveolar/bronchiolar adenoma + alveolar/bronchiolar carcinoma; dosed 78 weeks; study length 93 weeks

CHEMICAL SMILES: Nc1cc([N+](=O)[O-])ccc1C(=O)O
UNIT LABEL: mg/kg/day
TD50: 2560
--
CHEMICAL SMILES: CCOc1ccc(NC(C)=O)cc1N
UNIT LABEL: mg/kg/day
TD50: 8630

* * *

tested on: rodent lifetime carcinogenesis bioassay, tumor incidence TD50; assay: carcinogenic potency in animals, long-term in vivo studies, CPDB compilation (AID 1745844); conditions: rat; strain Sprague-Dawley; males; i.p.; site: any site (literature study); lesion: several types; types named in the paper; dosed 36 weeks; study length 80 weeks
MEASURED METRIC: TD50 (mg/kg/day)

CHEMICAL SMILES: CS(=O)(=O)OCCCNCCCOS(C)(=O)=O
MEASURED METRIC: TD50
OBS VALUE: 1.3

* * *

system: rodent lifetime carcinogenesis bioassay, tumor incidence TD50; assay: carcinogenic potency in animals, long-term in vivo studies, CPDB compilation (AID 1745844); settings: mouse; strain B6C3F1; females; in feed; site: liver; lesion: hepatocellular adenoma + hepatocellular carcinoma + neoplastic nodule; dosed 78 weeks; study length 94 weeks

CHEMICAL SMILES: Cc1cc(N)ccc1N
TARGET UNDER TEST: rodent lifetime carcinogenesis bioassay, tumor incidence TD50
UNIT LABEL: mg/kg/day
TD50: 1960

* * *

test system: rodent lifetime carcinogenesis bioassay, tumor incidence TD50; assay: carcinogenic potency in animals, long-term in vivo studies, CPDB compilation (AID 1745844); settings: rat; strain Wistar; males; in feed; site: liver; lesion: adenoma; dosed 104 weeks; study length 130 weeks
The source made the active and inactive calls. No rule for the calls is given here.

CHEMICAL SMILES: Cc1c(N(C)CS(=O)(=O)O)c(=O)n(-c2ccccc2)n1C
TARGET UNDER TEST: rodent lifetime carcinogenesis bioassay, tumor incidence TD50
TD50: 3340 mg/kg/day (inactive)

* * *

system: rodent lifetime carcinogenesis bioassay, tumor incidence TD50; assay: carcinogenic potency in animals, long-term in vivo studies, CPDB compilation (AID 1745844); conditions: rat; strain Fischer 344; females; in feed; site: palate + tongue; lesion: squamous-cell papilloma; dosed 104 weeks; study length 105 weeks

CHEMICAL SMILES: OCC(CO)(CBr)CBr
UNIT LABEL: mg/kg/day
TD50: 1240

* * *

test system: rodent lifetime carcinogenesis bioassay, tumor incidence TD50; experiment: carcinogenic potency in animals, long-term in vivo studies, CPDB compilation (AID 1745844); details: rat; strain Fischer 344; females; inhaled; site: mammary gland; lesion: fibroadenoma; dosed 78 weeks; study length 104 weeks

CHEMICAL SMILES: C=CCl
TD50: 29.7 mg/kg/day
